Biological target: T1, human CD8 alpha (CD8A) on primary human CD8+ T cells (human, UniProt P01732 22-235)
T1 construct: whole, on cells; also called hCD8A
T1 sequence (P01732 22-235): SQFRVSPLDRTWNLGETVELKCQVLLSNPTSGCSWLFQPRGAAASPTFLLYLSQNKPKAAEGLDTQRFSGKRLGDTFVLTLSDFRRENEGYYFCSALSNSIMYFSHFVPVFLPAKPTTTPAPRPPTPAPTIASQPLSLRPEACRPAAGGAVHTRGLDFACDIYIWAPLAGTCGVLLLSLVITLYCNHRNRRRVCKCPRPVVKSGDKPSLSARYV
Assay: flow cytometry, human CD8+ T cells
property_measured: Human T-cell Binding 0.2 uM (MFI)

Consider the following illustrative entries.
1) P283FR9P1366_C3 (designed binder, FN3 domain) LPAPKNLVVSRVTEDSARLSWTAPDAAFDSFKIAYPEWPDGGEAIVLTVPGSERSYDLTGLKPGTEYFVIIYGVKGGILSPPLSAIFTT; 407
2) P283GR7P1367_A11 (designed binder, FN3 domain) LPAPKNLVVSRVTEDSARLSWTAPDAAFDSFDIAYPEWPTDGEAIVLTVPGSERSYDLTGLKPGTEYFVIIYGVKGGSYSEPLSAIFTT; 1030

P = P283DR9P1364_E8 (designed binder, FN3 domain) LPAPKNLVVSRVTEDSARLSWTAPDAAFDSFSIAYPEWPVHGEAIVLTVPGSERSYDLTGLKPGTEYFVIIYGVKGGVLSEPLSAIFTT
Q = P283HR7P1368_D2 (designed binder, FN3 domain) LPAPKNLVVSRVTEDSARLSWTAPDAAFNSFGIGYAEPAVTGEAISLSVPGSERSYDLTGLKPGTEYWVVIIGVKGGINSYPLGASFTT
R = P283GR7P1367_H8 (designed binder, FN3 domain) LPAPKNLVVSRVTEDSARLSWTAPDAAFDSFSINYWEEDPAGEAIVLTVPGSERSYDLTGLKPGTEYRVLIGGVKGGHGSLPLSAIFTT
[in] Arrange these binders by their Human T-cell Binding 0.2 uM (MFI), starting with the largest number. Quick reminder: the answer is the labels in the order asked.
[out] Q, P, R

FYI, the data here is from patent US20210032312A1.
